system: L. major; test: Growth of L. major promastigotes in liquid medium with drug; type: cell-based, Leishmania major; conditions: Leishmania major; wild-type or heterozygous (+/HYG) cells, liquid media; read-out: concentration of MTX required to inhibit cell growth by 50% (EC50)
measure: EC50

Form field: reported EC50 of CN(Cc1cnc2nc(N)nc(N)c2n1)c1ccc(C(=O)N[C@@H](CCC(=O)O)C(=O)O)cc1 [MTX, methotrexate]
~1000 nM

Values from patent US6410250B1
